System: HCT-15
Quick reference: GI50 of the listed items.

# COMPOUND, GI50
records = [
    ("COc1cccc(-c2cc(O)c3cc(N4CCN(C)CC4)ccc3n2)c1", "1.75 µM"),
    ("c1ccc(Cc2cccc3cc(-c4ccc(-c5ccccc5)cc4)[nH]c23)cc1", "> 100 µM"),
    ("CC1(C)OC2OC(C(COS(=O)(=O)C(F)(F)F)N=[N+]=[N-])C(OC(=O)c3ccccc3)C2O1 (centres undefined)", "> 100 µM"),
    ("O=C1C(Nc2ccc(S(=O)(=O)Nc3cnc4ccccc4n3)cc2)=C/C(=N\\c2ccc(S(=O)(=O)Nc3cnc4ccccc4n3)cc2)c2ccccc21", "18.4 µM"),
    ("CC1(C)C(=S)C(C)(C)C1=S", "> 100 µM"),
    ("C[N+](C)(C)CCOC(=O)/C=C/c1c[nH]cn1", "> 500 µM"),
    ("CC1CC(=O)C(CC(=O)O)C1C(C(=O)C(=O)Nc1c(C#N)cccc1[N+](=O)[O-])[N+](=O)[O-] (centres undefined)", "> 100 µM"),
    ("O=C1NN=C2C=C(c3ccc(Cl)cc3)CC(c3cccc(Br)c3)C12 (centres undefined)", "19.3 µM"),
    ("CCCCNS(=O)(=O)c1ccc(-c2ccc3c(c2)-c2ccc(S(=O)(=O)NCCCC)cc2S3(=O)=O)cc1", "72.8 µM"),
]

* * *

System: IGROV-1
Test: NCI tumour cell line growth inhibition, 48 h
Activity calls are given as the source filed them. Rule as the data show it: active = GI50 up to about 1.1 µM and inactive = higher.
Recorded GI50 by entry

# MOLECULE, TARGET_OR_SYSTEM, GI50
data = [
    ("Cc1cc2c(cc1-c1cc3c(cc1C)C(C(C)C)=C(O)C(=O)/C3=C\\Nc1nc(-c3ccccc3)cs1)/C(=C/Nc1nc(-c3ccccc3)cs1)C(=O)C(O)=C2C(C)C", "IGROV-1", "16.8 µM (inactive)"),
    ("O=C1/C(=C/c2ccccc2)CN(C(=O)OCC(Cl)(Cl)Cl)C/C1=C\\c1ccccc1", "IGROV-1", "3.54 µM (inactive)"),
    ("COc1cccc(C2c3cc4c(cc3OC(NNS(=O)(=O)c3ccc(C)cc3)C2C)OCO4)c1O (stereo not given)", "IGROV-1", "26.9 µM (inactive)"),
    ("OC(c1cc2ccc(C(F)(F)F)cc2c2cc(C(F)(F)F)ccc12)C1CCCCN1 (stereo not given)", "IGROV-1", "1.74 µM (inactive)"),
    ("Nc1nc2sc3ccccc3c(=O)n2n1", "IGROV-1", "> 100 µM (inactive)"),
    ("O=C1CCCC/C1=C1/SC(=N/c2ccccc2)/C(=N\\c2ccccc2)N1c1ccccc1", "IGROV-1", "> 100 µM (inactive)"),
    ("COc1ccc(CN2CC(C)(C)C2=O)c(OC)c1", "IGROV-1", "> 100 µM (inactive)"),
    ("CC(=O)Oc1cccc2c1C(=O)CCCC2", "IGROV-1", "> 100 µM (inactive)"),
    ("COC(=O)[C@@](C)(COC(=O)C(C)(C)C)NC(=O)OC(C)(C)C", "IGROV-1", "> 100 µM (inactive)"),
    ("Cc1cccc(Nc2cnc(N)nc2N)c1", "IGROV-1", "> 100 µM (inactive)"),
]
